Just for reference, patent US20130129746A1 is where these values come from.

- Measurement Target: T1, Rat Serum Albumin (rat, UniProt P02770 25-608)
- T1 construct: mature; purified protein on CM5 chips for BIAcore; also called RSA; rat SA
- T1 sequence (P02770 25-608): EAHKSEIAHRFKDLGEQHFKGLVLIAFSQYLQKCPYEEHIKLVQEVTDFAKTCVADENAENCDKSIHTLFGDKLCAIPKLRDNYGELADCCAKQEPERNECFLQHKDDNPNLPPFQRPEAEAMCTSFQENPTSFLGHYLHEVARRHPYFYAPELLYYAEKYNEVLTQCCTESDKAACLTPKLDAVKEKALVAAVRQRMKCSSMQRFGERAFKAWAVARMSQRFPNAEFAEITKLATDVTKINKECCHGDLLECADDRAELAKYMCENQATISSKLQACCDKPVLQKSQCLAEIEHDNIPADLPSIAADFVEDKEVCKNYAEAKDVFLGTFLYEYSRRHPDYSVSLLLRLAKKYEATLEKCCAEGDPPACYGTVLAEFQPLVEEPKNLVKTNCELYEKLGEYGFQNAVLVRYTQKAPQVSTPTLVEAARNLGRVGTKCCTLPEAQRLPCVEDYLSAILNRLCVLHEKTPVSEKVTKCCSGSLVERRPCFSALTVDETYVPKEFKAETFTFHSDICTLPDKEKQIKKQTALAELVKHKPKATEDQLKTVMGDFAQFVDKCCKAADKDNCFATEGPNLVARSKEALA
- Method Notes: BIAcore SPR;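 note: purified dAbs run at 1 µM, 500 nM and 50 nM over human, cynomolgus, mouse and rat serum albumin in BIAcore binding measurements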
Give koff for every item shown.
Report as a plain number; the unit s⁻¹ is understood.

binder DOM7h-11 (other) VL: DIQMTQSPSSLSASVGDRVTITCRASRPIGTTLSWYQQKPGKAPKLLIWFGSRLQSGVPSRFSGSGSGTDFTLTISSLQPEDFATYYCAQAGTHPTTFGQGTKVEIKR , koff observed: 0.1

binder DOM7h-14 (other, Vk dAb (AlbudAb)) VL: DIQMTQSPSSLSASVGDRVTITCRASQWIGSQLSWYQQKPGKAPKLLIMWRSSLQSGVPSRFSGSGSGTDFTLTISSLQPEDFATYYCAQGAALPRTFGQGTKVEIKR , koff observed: 0.209

binder DOM7h-11-19 (other) VL: DIQMTQSPSSLSASVGDRVTITCRASRPIGTMLSWYQQKPGKAPKLLILFGSRLQSGVPSRFSGSGSGTDFTLTISSLQPEDFATYYCAQTGTHPTTFGQGTKVEIKR , koff observed: 0.091

binder DOM7h-14-18 (other, Vk dAb (AlbudAb)) VL: DIQMTQSPSSLSASVGDRVTITCRASQWIGSQLSWYQQKPGKAPKLLIMWRSSLQSGVPSRFSGSGSGTDFTLTISSLQPEDFATYYCAQGLMKPMTFGQGTKVEIKR , koff observed: 0.228
